Tested on: CC49-TCO
Assay: Ex vivo blocking assay: blocking of [111In]Tz-Tg binding to CC49-TCO in LS174T tumor xenografts
Set-up: species or system nude BALB/c mice
Details: change in tumor uptake of [111In]Tz-Tg 22 h p.i.; Tz administered 1 h prior; normalized to non-blocked control; mean from n = 3 mice/group
measurement type: Normalized Tumor blocking effect

> print(dat)
                                   compound  study.system                  measurement.type  recorded.result
1  O=C(O)C(F)(F)F.O=C(O)CN(CC(=O)O)Cc1ccc(-c2nncnn2)cc1OCCF      CC49-TCO  Normalized Tumor blocking effect               98
2  O=C(O)CN(CC(=O)O)Cc1ccc(-c2nnc(-c3ccc(OCCF)cn3)nn2)nc1 [Tz-Tg, reference compound]      CC49-TCO  Normalized Tumor blocking effect               99
3  O=C(O)C(F)(F)F.O=C(O)CN(CCF)Cc1ccc(-c2nncnn2)cc1F      CC49-TCO  Normalized Tumor blocking effect               69
